# key: entry, value: Ki
biological target: [3H]Dopamine reuptake; experiment: in vitro [3H]dopamine reuptake inhibition in rat brain tissue; format: biochemical; settings: means of ≧ 3 separate determinations
ENDPOINT LABEL: Ki (nM)

{"COMPOUND": "CC(NC(C)(C)C)C(=O)c1cccc(Cl)c1 (centres unmarked) [Bupropion]", "MEASURED": 409}
{"COMPOUND": "COc1ccc(C(CN(C)C)C2(O)CCCCC2)cc1 (centres unmarked) [Venlafaxine]", "MEASURED": 2590}

----------
target: [3H]Noradenaline reuptake; test: in vitro [3H]noradrenaline reuptake inhibition in rat brain tissue; format: biochemical; settings: means of ≧ 3 separate determinations
ENDPOINT LABEL: Ki (nM)

{"MOLECULE": "COc1ccc(C(CN(C)C)C2(O)CCCCC2)cc1 (centres unmarked)", "UNIT NAME": "nM", "MEASURED": 196}
{"MOLECULE": "CC(NC(C)(C)C)C(=O)c1cccc(Cl)c1 (centres unmarked)", "UNIT NAME": "nM", "MEASURED": 2590}
